Target: Macaca fascicularis IL-36R extracellular domain expressed with a C-terminal myc-myc-hexahistidine tag (Macaca fascicularis)
Assay: SPR Biacore T200, mAb captured by anti-hFc, 37C, PBS-T pH 6.0

binder | reading unit | koff
H4H14709P (antibody, human IgG4 S228P, kappa, V domains shown) VH: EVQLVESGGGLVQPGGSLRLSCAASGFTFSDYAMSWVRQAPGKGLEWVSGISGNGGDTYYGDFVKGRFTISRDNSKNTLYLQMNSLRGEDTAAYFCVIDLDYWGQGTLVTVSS VL: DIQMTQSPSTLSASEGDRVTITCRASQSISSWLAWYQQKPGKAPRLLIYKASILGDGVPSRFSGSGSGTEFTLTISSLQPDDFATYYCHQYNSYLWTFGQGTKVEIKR | s⁻¹ | 0.00294
